The values you see were collected from the supplement of paper PMC9170038.

- Tested on: MS2 coat protein
- ASSAY_NAME: apparent KD of MS2 coat protein; higher = weaker reporter binding
- MEASUREMENT_SETUP: Eterna round: R107; input ligand: theophylline 20 uM
Please note: True applies when apparent KD of MS2 coat protein is 0.05 µM or greater, and False applies otherwise.

Inquiry: Hello, I need to know if AAUUAAACAUCGGCCGCCACUUACUCAUGAGGUAACAACAUGAGGAUCACCCAUGUUUGAGGAUCAAGGACCGGGAUGUAAUAAU [AstrosSSTryB#2] has measured apparent KD of MS2 coat protein not below 0.05 µM. Thanks!
Reply text: False

Inquiry: And then UAAUAAGUGCCGGUUCUCAGAUCCUCAUGUCGAGGACCGGUACGGCCGCCACUCGAAACAUGAGGAUCACCCAUGUAAUAAUAAU [#08 Exclusion Tryptophan A] , what is it?
Reply text: True

Inquiry: And then AUAACUGCCAAGGAUCAUGGGUGAGCAGAUACCAGCUAGGAAACUAGCCCUUGGCAGCUGCAACAUGAGGAUCACCCAUGUAAUA [(T)'-(M)'-(T1)-(T2)-(M1)-(M2)_Design8] , what is it?
Reply text: True

Inquiry: And then GGACUAACCAGAAGGAGCGGCACGCAGAAACUGCUAAUUCCUCCGCACGAGGAUCACCCGUGUCAGGUAGGUCGCUGGUUAGUCG [ArgBX 28] , what is it?
Reply text: False

Inquiry: And then CGGCCCUCACGUGAGGAUCACCCACGUGAUACCAGCCUGGAAACAGGCCCUUGGCAGCACUAGGUCAUCAAAGAUGACCAAGCCG [TheoAX 27 #OpenEnded #AlternativeMS2] , what is it?
Reply text: False

Inquiry: And then GCCGCGGCCGGAAUAAACAUGGGUAAAUAACGAGGACCGGUACGGCCGCCACUCGAGAUAAAUAACAUGAGGAUCACCCAUGUAC [Exclusion Tryp A GF11] , what is it?
Reply text: True

Inquiry: And then UUUAGUAUCUUAGAUACCAGUUUUGGGUGCUGAACGUCUCACAUGAGGAUCACCCAUGUAAACCCUUGGCAGCUACAUACGUAAA [theeternabot_exclusion_MS2_Theo_B_41] , what is it?
Reply text: True

Inquiry: And then ACGAUAGCACAAGAGGAUCACCCUUGUGAUACCAGCCUGGAAACAGGCCCUUGGCAGCACACAAAUAAAUUGUAACUAUCGAAUA [TheoAX5 #MicroSwitchBubble #AlternativeMS2] , what is it?
Reply text: False

Inquiry: And then AUCCCGUGAGCGGCCGCCACUGGAGGCUUUGCGCGACAUGAGGAUCACCCAUGUGUGCCCGGCGUUAGGACCGGGUUCGCGUGGA [#1 Same State - Tryptophan B Attempt #17 (HarryS)] , what is it?
Reply text: True

Inquiry: And then UCGACAGUGAACGAUACCAGCGUCACGUGGCCGGUGGUCACAUGAGGAUCACCCAUGUAACGCCCUUGGCAGCGUGCACGUAUCA [Latedirius] , what is it?
Reply text: False

Inquiry: And then UACAUGAGGAUCACCCAUGUCGGCAGGGAAGGAGCGGCAAUAAAGCCAGGUAGGUCGCCCAUUAGUAUUUAUAAAUAAAUAUCCA [Same State - Arginine A] , what is it?
Reply text: True

Inquiry: And then GGCGCGCGCCAACAUGAGGAUCACCCAUGUCGAGGACCGGUACGGCCGCCACUCGAACGAGUGAAGCGCGCGCGCGGGCGACCGC [Saa] , what is it?
Reply text: False

Inquiry: And then GUGUGGAGCUCGGCCGCCACUCAAACAUGAGGAUCACCCAUGUAAAACAUGAGGAUCACCCAUGUGAGGACCGGGAGAAACACGA [Exclusion Tryptophan B GF8] , what is it?
Reply text: True

Inquiry: And then AACGUAUACAGAAGGAGCGUGAAAUAAGUAAAUUAAUAAUAAACAUGAGGAUCACCCAUGUCACAGGUAGGUCGCUGUAUUCGUA [JR_ExcArginiB_Sub017] , what is it?
Reply text: False

Inquiry: And then GACCGAUUAUAGCACGAUUGUCUUGUGGAAGGAGCGCAGAGGGCUGCAGGUAGGUCGCCACAUGAGGAUCACCCAUGUCAGGAUA [Raanti] , what is it?
Reply text: True
